System: pigweed (Amaranthus retroflexus)
protocol.text: Test A preemergence
Type: in vivo
stated.conditions: Preemergence, 500 g ai/ha; 0 is no effect, 100 is complete control
result.type: Pigweed plant response rating (0 to 100 scale)
# answer = number (no unit)

What value of Pigweed plant response rating (0 to 100 scale) has been recorded for this entry: Cc1ccc(C2CNC(=O)C2C(=O)Nc2ccc(F)cc2F)cc1F (racemic) [Compound 370]
0

What value of Pigweed plant response rating (0 to 100 scale) has been recorded for this entry: CN1CC(c2ccc(C(F)(F)F)c(F)c2)C(C(=O)Nc2cccc(F)c2F)C1=O (stereo not drawn) [Compound 396]
90

What value of Pigweed plant response rating (0 to 100 scale) has been recorded for this entry: CC(C)Oc1cccc(C2CN(C)C(=O)C2C(=O)Nc2ccc(F)cc2F)c1 (stereo not drawn) [Compound 378]
80

What value of Pigweed plant response rating (0 to 100 scale) has been recorded for this entry: Nc1cccc(C2CNC(=O)C2C(=O)Nc2cccc(F)c2F)c1 (stereo not drawn) [Compound 353]
0

What value of Pigweed plant response rating (0 to 100 scale) has been recorded for this entry: O=C1NCC(c2cccnc2)C1C(=O)Nc1ccccc1C(F)(F)F (racemic) [Compound 352]
0

What value of Pigweed plant response rating (0 to 100 scale) has been recorded for this entry: O=C1NCC(c2ccc(-c3ccccc3)cc2)C1C(=O)Nc1ccccc1C(F)(F)F (racemic) [Compound 367]
0

Just for reference, patent US12077503B2 is where these values come from.
